testTarget: human TLR7 (Homo sapiens (Human))
Sequence (Q9NYK1 27-1049): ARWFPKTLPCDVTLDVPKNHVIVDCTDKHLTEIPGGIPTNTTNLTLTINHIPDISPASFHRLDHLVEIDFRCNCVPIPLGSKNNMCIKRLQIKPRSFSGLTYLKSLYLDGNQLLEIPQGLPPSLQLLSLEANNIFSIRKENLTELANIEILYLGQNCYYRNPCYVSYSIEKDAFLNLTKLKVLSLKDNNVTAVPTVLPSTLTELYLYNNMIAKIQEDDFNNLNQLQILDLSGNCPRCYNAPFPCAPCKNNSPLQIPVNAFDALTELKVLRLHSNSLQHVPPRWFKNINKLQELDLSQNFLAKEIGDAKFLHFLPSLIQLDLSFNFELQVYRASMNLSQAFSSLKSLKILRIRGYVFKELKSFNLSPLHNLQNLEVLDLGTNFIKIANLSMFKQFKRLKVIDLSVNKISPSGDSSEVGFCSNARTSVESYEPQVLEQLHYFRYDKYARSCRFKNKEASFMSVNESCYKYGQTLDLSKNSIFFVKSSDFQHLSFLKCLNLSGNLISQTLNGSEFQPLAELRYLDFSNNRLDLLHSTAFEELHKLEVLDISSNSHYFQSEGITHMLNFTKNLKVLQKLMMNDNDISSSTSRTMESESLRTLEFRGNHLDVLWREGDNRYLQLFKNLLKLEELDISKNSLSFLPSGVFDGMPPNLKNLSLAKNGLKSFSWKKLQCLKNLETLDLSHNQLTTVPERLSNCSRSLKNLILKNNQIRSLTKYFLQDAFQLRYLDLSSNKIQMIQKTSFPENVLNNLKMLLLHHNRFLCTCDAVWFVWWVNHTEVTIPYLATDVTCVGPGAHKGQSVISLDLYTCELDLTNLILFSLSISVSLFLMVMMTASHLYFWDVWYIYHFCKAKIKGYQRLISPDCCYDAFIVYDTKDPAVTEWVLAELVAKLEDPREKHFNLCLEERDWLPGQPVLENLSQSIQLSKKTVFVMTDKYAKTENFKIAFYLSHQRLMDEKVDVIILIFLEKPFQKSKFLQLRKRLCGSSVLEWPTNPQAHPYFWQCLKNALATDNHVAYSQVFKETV
experimentSummary: TLR7 inhibition reporter assay (HEK-Blue, SEAP)
assayConditions: HEK-Blue cells overexpressing human TLR7, gardiquimod 7.5 μM stimulation
pIC50: −log10 of the molar value.
propertyMeasured: pIC50

# example entries with known answers
{"molecule": "Cc1cc(-c2[nH]c3ccc(-c4ccnc(N5CCN(C)CC5)c4)cc3c2C(C)C)cc(C)n1", "testTarget": "human TLR7 (Homo sapiens (Human))", "pIC50": 8.15}
{"molecule": "CCc1c(-c2ccc(OC)c(OC)c2)[nH]c2ccc(-c3noc([C@H]4CCC[C@@]4(C)N)n3)cc12", "testTarget": "human TLR7 (Homo sapiens (Human))", "pIC50": 6.04}
{"molecule": "CNC(=O)CN1CCCC(c2nnc(-c3ccc4[nH]c(-c5ccnc(C)c5)c(C(C)C)c4c3)[nH]2)C1 (stereo not drawn)", "testTarget": "human TLR7 (Homo sapiens (Human))", "pIC50": 6.25}

A = CC(C)c1c(-c2ccnc3[nH]ncc23)[nH]c2ccc(-c3ccc(C(C)N4CCOCC4)cc3)cc12 (stereo not drawn)
B = Cc1cc(-c2[nH]c3ccc(-c4ccc(N5CCC5)nc4)cc3c2C(C)C)cc(C)n1
Exercise: Thinking about recorded pIC50 values, which is higher, A or B ? Answer by stating the label of the chosen item.
Solution: B
